Target: cycloGMP-dependent kinase (Bos taurus, UniProt P00516)
Sequence (P00516 1-671): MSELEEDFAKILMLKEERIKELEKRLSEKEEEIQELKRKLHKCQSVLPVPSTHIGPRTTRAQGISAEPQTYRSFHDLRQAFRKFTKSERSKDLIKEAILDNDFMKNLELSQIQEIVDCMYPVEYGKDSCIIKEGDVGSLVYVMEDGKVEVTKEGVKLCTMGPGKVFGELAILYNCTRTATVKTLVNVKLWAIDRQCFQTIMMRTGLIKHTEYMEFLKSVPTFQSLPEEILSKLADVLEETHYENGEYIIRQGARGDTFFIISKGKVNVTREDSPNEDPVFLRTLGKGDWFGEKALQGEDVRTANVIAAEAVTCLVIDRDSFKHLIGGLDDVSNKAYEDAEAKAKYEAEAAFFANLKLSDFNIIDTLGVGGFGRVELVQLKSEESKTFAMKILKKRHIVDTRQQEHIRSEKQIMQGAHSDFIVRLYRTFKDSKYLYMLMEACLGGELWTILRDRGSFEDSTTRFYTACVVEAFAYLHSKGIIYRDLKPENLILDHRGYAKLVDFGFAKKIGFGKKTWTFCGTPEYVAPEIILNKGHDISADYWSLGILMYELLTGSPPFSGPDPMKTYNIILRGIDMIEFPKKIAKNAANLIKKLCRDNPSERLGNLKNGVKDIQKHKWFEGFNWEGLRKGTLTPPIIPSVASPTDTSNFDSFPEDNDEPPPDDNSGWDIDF
Structures can show the parent of a compound that is named as a salt.
measurement type: IC50

Given the molecule CCCCCCCCCCCCCCCCCCOCC(CN(C)C)OC(C)=O (racemic) [A, acetate hydrochloride] , what is its reported IC50?
> 100 µM

List IC50 for every entry below, keeping the order given.
1. CCCCCCCCCCCCCCCCCCOCC(O)CN(C)C(CO)C(=O)O (stereo not drawn) [Example 1, hydrochloride]
2. CCCCCCCCCCOCC(CN1CCC(CN)(c2ccccc2)CC1)OCCCCCCCCCC (stereo not drawn)

1. > 100 µM
2. 28 µM
